Assay target: Hfq WT (Escherichia coli, UniProt P0A6X3 1-102)
Run description: fluorescence anisotropy
Measured endpoint: Kd (nM)
Value expressed in nM; do not type the unit.

Request: # Kd lookup, item GUGGUCAGUCGAGUGGUUUUUU (ssRNA) [Oligo CU]
Response: 0.1

src = paper PMC3753642
